molecular target: 5HT3 receptor (Rattus norvegicus); test: Inhibition of the binding of ^3 H-GR65630 to 5-HT3 sites in rat entorhinal cortex; set-up: labelled in the entorhinal cortex of the rat brain; from tissue; host or cells: rat entorhinal cortex
Sequence (P35563 24-483): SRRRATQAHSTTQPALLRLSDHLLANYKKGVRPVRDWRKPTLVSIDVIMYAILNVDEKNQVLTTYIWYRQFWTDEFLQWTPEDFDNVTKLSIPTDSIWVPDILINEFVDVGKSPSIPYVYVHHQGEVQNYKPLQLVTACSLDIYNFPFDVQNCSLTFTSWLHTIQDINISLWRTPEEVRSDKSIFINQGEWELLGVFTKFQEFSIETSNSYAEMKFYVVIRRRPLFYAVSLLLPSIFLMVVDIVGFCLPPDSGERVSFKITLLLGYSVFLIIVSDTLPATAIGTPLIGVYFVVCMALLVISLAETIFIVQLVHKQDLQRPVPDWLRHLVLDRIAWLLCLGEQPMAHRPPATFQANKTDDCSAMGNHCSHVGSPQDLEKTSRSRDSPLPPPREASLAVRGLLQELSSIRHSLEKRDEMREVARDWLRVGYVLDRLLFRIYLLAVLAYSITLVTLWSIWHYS
Structures can show the parent of a compound that is named as a salt.
pKi values, listed per item
# reply with the number alone; pKi is -log10 of concentration in mol/L

Some solved cases for reference:
compound | measValue
Cl.O=C1N(C2CN3CCC2CC3)CC2COc3ccc(Cl)cc3N12 (stereo not shown) [FCE 26781, hydrochloride] | 8.58
Cl.O=C1N(C2CN3CCC2CC3)CC2COc3ccccc3N12 (stereo not shown) [FCE 26962, hydrochloride] | 8.01
CN1C2CCC1CC(N1CC3COc4ccccc4N3C1=O)C2 (stereo not shown) [FCE 26878, hydrochloride] | 7.15

# context switch: different compound, same pKi
-- ask # returns recorded pKi (system: 5HT3 receptor (Rattus norvegicus)) for CN1C2CCCC1CC(N1CC3COc4ccc(Cl)cc4N3C1=O)C2 (stereo not shown) [FCE 26785, hydrochloride]
-- reply 8.01

The reported measurements were obtained from patent US5364854A.
